These entries and their values trace back to ChEMBL document CHEMBL4033791.

Assay: Apparent permeability across basolateral to apical side in human Caco2 cells at 2 uM after 2 hrs by LC-MS/MS analysis
Assay type: ADME, cell-based
Details: Caco-2
Readout Label: Papp B→A at 2 h, 2 µM (×10⁻⁶ cm/s)

INSERT INTO results (molecule, measurement_unit, reported_measurement) VALUES
  ('CCNC(=O)c1cc2c(N3CCOCC3C3CC3)ccnc2[nH]1 (centres undefined)', '×10⁻⁶ cm/s', 79),
  ('CCNC(=O)c1cc2c(N3CCOC[C@@H]3C)ccnc2[nH]1', '×10⁻⁶ cm/s', 209),
  ('CCNC(=O)c1cc2c(N3CCOCC3c3ccccc3)ccnc2[nH]1 (centres undefined)', '×10⁻⁶ cm/s', 89),
  ('CCNC(=O)c1cc2c(N3CCCC3C(C)(C)OC)ccnc2[nH]1 (centres undefined)', '×10⁻⁶ cm/s', 225);
